Experiment: Mice PK study
Assay type: in vivo
Conditions: 25 mg/kg; Oral, 25 mpk, CD-1 mouse, plasma
Method: Biological Example 4: Mice PK Study The pharmacokinetics of compounds were evaluated in CD-1 mouse via Intravenous and Oral Administration. The IV dose was administered as a slow bolus in the Jugular vein, and oral doses were administered by gavage. The formulation for IV dosing was 5% DMSO in 20% HPBCD in water, and the PO formulation was 2.5% DMSO, 10% EtOH, 20% Cremphor EL, 67.5% D5W. […] Concentrations of compounds in the plasma samples were analyzed using a LC-MS/MS method. […]
readout-name: AUC
Write your answer as a measured quantity: the number, then the unit.

Field request: AUC | item: `COc1cc(C(=O)N2CCC3(CC2)C[C@@H]3C#Cc2cccc3c2CN([C@H]2CCC(=O)NC2=O)C3=O)ccc1NC(=O)[C@@H]1N[C@@H](CC(C)(C)C)[C@@]2(CNc3cc(Cl)ccc32)[C@H]1c1cccc(Cl)c1F`
49400 ng·h/mL

----------
Target: MDM2 (Homo sapiens (Human), UniProt Q00987)
Sequence (Q00987 whole entry): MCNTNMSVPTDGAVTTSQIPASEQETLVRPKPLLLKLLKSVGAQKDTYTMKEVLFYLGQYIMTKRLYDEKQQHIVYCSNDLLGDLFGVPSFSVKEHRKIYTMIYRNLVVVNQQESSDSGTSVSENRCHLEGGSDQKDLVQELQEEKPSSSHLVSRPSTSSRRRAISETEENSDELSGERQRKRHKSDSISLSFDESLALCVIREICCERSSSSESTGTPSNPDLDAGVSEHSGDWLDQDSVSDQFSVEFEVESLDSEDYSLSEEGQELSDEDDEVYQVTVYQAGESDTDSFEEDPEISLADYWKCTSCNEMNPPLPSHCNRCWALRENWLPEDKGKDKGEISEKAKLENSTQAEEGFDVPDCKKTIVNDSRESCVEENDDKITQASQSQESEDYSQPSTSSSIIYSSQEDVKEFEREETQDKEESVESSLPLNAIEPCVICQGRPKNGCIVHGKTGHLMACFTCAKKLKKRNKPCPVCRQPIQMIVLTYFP
Assay: In vitro MDM2 HTRF assay (inhibition of p53-MDM2 interaction)
Conditions: GST-MDM2 / biotinylated p53 peptide
# if measured IC50 < 3 nM: Y  # else: N

Illustrative cases are given below, each with its answer.
compound | qualitative-label
COc1cc(C(=O)N2CCC3(CC2)C[C@@H]3C#Cc2cccc3c2CN(C2CCC(=O)NC2=O)C3=O)ccc1NC(=O)[C@@H]1N[C@@H](CC(C)(C)C)[C@@]2(CNc3cc(Cl)ccc32)[C@H]1c1cccc(Cl)c1F (stereo partly drawn) | Y
COc1cc(C(=O)N2CCN(CC#Cc3cccc4c3CN(C3CCC(=O)NC3=O)C4=O)CC2)ccc1NC(=O)[C@@H]1N[C@@H](CC(C)(C)C)[C@@]2(CNc3cc(Cl)ccc32)[C@H]1c1cccc(Cl)c1F (stereo partly drawn) | Y
COc1cc(C(=O)N2CCC(C#Cc3cccc4c3CN(C3CCC(=O)NC3=O)C4=O)CC2)ccc1NC(=O)[C@@H]1N[C@@H](CC(C)(C)C)[C@@]2(CNc3cc(Cl)ccc32)[C@H]1c1cccc(Cl)c1F (stereo partly drawn) | N

Below 3 nM on IC50? Entry COc1cc(C(=O)N[C@H]2CCC[C@@H](C#Cc3cccc4c3CN(C3CCC(=O)NC3=O)C4=O)C2)ccc1NC(=O)[C@@H]1N[C@@H](CC(C)(C)C)[C@@]2(CNc3cc(Cl)ccc32)[C@H]1c1cccc(Cl)c1F (stereo partly drawn)
Y

Proceed to `COc1cc(C(=O)N2CCCC[C@@H]2CCC#Cc2cccc3c2CN([C@@H]2CCC(=O)NC2=O)C3=O)ccc1NC(=O)[C@@H]1N[C@@H](CC(C)(C)C)[C@@]2(CNc3cc(Cl)ccc32)[C@H]1c1cccc(Cl)c1F`
Y

Proceed to `CC(C)(C)C[C@@H]1N[C@@H](C(=O)N2CCOc3cc(C(N)=O)ccc32)[C@H](c2cccc(Cl)c2F)[C@]12CNc1cc(Cl)ccc12`
N

Thanks! And COc1cc(C(=O)NC23CC(C#Cc4cccc5c4CN(C4CCC(=O)NC4=O)C5=O)(C2)C3)ccc1NC(=O)[C@@H]1N[C@@H](CC(C)(C)C)[C@@]2(CNc3cc(Cl)ccc32)[C@H]1c1cccc(Cl)c1F (stereo partly drawn) ?
N

Entry to check: `COc1cc(C(=O)N2CCCC[C@H]2CCC#Cc2cccc3c2CN([C@H]2CCC(=O)NC2=O)C3=O)ccc1NC(=O)[C@@H]1N[C@@H](CC(C)(C)C)[C@@]2(CNc3cc(Cl)ccc32)[C@H]1c1cccc(Cl)c1F`
Y

Moving on to the next compound: `COc1cc(C(=O)N2CCC3(CC2)C[C@@H]3C#Cc2cccc3c2CN([C@H]2CCC(=O)NC2=O)C3=O)ccc1NC(=O)[C@@H]1N[C@@H](CC(C)(C)C)[C@@]2(CNc3cc(C(F)(F)F)ncc32)[C@H]1c1cccc(Cl)c1F`
N

----------
Molecular target: MDM2 (Homo sapiens (Human), UniProt Q00987)
Experiment: In vitro MDM2 HTRF assay (inhibition of p53-MDM2 interaction)
Conditions: GST-MDM2 / biotinylated p53 peptide
readout-name: IC50 (nM)
One number for each entry, in nM.

These recorded examples may help you get a feel for the data.
compound | IC50 / nM
COc1cc(C(=O)NCCCC#Cc2cccc3c2CN([C@@H]2CCC(=O)NC2=O)C3=O)ccc1NC(=O)[C@@H]1N[C@@H](CC(C)(C)C)[C@@]2(CNc3cc(Cl)ccc32)[C@H]1c1cccc(Cl)c1F | 1.36
COc1cc(N2CCC[C@@H](C#Cc3cccc4c3CN([C@H]3CCC(=O)NC3=O)C4=O)C2)ccc1NC(=O)[C@@H]1N[C@@H](CC(C)(C)C)[C@@]2(CNc3cc(Cl)ccc32)[C@H]1c1cccc(Cl)c1F | 13.2

For each of the compounds below, state IC50.
1. COc1cc(N2CCC[C@H](C#Cc3cccc4c3CN([C@@H]3CCC(=O)NC3=O)C4=O)C2)ccc1NC(=O)[C@@H]1N[C@@H](CC(C)(C)C)[C@@]2(CNc3cc(Cl)ccc32)[C@H]1c1cccc(Cl)c1F
2. COc1cc(C(=O)NCCCC#Cc2cccc3c2CN([C@H]2CCC(=O)NC2=O)C3=O)ccc1NC(=O)[C@@H]1N[C@@H](CC(C)(C)C)[C@@]2(CNc3cc(Cl)ccc32)[C@H]1c1cccc(Cl)c1F
3. COc1cc(C(=O)N2CCC3(CC2)CC(C#Cc2cccc4c2CN(C2CCC(=O)NC2=O)C4=O)C3)ccc1NC(=O)[C@@H]1N[C@@H](CC(C)(C)C)[C@@]2(CNc3cc(Cl)ccc32)[C@H]1c1cccc(Cl)c1F (stereo partly shown)
4. COc1cc(C(=O)N2CCC3(CC2)C[C@H]3C#Cc2cccc3c2CN(C2CCC(=O)NC2=O)C3=O)ccc1NC(=O)[C@@H]1N[C@@H](CC(C)(C)C)[C@@]2(CNc3cc(Cl)ccc32)[C@H]1c1cccc(Cl)c1F (stereo partly shown)
5. COc1cc(C(=O)N2CCC[C@@H](CC#Cc3cccc4c3CN(C3CCC(=O)NC3=O)C4=O)C2)ccc1NC(=O)[C@@H]1N[C@@H](CC(C)(C)C)[C@@]2(CNc3cc(Cl)ccc32)[C@H]1c1cccc(Cl)c1F (stereo partly shown)

1. 12
2. 1.3
3. 4.51
4. 4.67
5. 3.72

Source of measurements: patent US20250073340A1
